Biological target: Human recombinant FAP (Homo sapiens, UniProt Q12884)
Sequence (Q12884 1-760): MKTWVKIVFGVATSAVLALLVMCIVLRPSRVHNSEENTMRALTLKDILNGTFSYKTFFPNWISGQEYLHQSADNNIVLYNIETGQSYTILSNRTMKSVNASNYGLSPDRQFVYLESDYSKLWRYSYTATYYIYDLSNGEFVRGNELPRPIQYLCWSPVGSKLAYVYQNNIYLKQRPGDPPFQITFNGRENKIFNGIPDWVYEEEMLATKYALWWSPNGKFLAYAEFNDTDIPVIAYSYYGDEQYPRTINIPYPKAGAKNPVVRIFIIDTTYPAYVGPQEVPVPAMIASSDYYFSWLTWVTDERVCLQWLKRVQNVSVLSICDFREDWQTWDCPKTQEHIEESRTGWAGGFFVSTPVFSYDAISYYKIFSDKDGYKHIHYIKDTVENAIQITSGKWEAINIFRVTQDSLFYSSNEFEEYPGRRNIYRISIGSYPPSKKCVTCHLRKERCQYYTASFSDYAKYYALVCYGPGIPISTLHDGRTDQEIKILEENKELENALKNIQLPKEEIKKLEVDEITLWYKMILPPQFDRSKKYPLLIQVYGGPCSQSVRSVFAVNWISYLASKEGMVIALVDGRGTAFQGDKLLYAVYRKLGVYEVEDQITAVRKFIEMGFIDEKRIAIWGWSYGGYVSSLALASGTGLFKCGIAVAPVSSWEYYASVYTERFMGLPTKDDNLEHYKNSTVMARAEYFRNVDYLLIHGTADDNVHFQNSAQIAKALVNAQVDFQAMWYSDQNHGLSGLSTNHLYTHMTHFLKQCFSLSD
Test: FRET-based FAP protease activity assay
Format: biochemical
Set-up: purchased R&D systems 3715-SE
Conditions: pIC50 Category (Activity), FRET substrate, 37° C.
Recorded Metric: IC50

{"Compound": "CCCCCC(=O)N[C@H]1CSCc2cc(cc(CN3CCN(C(=O)COCCOCCNC(=O)C(CNCCN)CNCCN)CC3)c2)CSC[C@@H](C(=O)O)NC(=O)[C@H](Cc2ccccc2)NC(=O)[C@H](CCC(N)=O)NC(=O)[C@H]([C@@H](C)O)NC(=O)[C@@H]2CCCN2C(=O)[C@@H]2CCCN2C1=O [3BP-4169]", "IC50": "< 10 nM"}
{"Compound": "CCCCCC(=O)N[C@H]1CSCc2cc(CSCCNC(=O)CN3CCN(CC(=O)O)CCN(CC(=O)O)CCN(CC(=O)O)CC3)cc(c2)CSC[C@@H](C(=O)N[C@@H](CO)C(=O)O)NC(=O)[C@H](Cc2ccccc2)NC(=O)[C@H](CCC(N)=O)NC(=O)[C@H]([C@@H](C)O)NC(=O)[C@@H]2CCCN2C(=O)[C@@H]2CCCN2C1 [3BP-3658]", "IC50": "< 10 nM"}

Consider the additional compound presented here.
What reported IC50 corresponds to CCCCCC(=O)N[C@H]1CSCc2cc(CSCCNC(=O)CN3CCN(CC(=O)O)CCN(CC(=O)O)CCN(CC(=O)O)CC3)cc(c2)CSC[C@@H](C(=O)N[C@H](CC(=O)O)Cc2ccccc2)NC(=O)[C@H](Cc2ccccc2)NC(=O)[C@H](CCC(N)=O)NC(=O)[C@H]([C@@H](C)O)NC(=O)[C@@H]2CCCN2C(=O)[C@@H]2CCCN2C1 [3BP-3660] on Human recombinant FAP (Homo sapiens, UniProt Q12884)?
< 10 nM
